Entries and their measured Stability (Arbitrary units) Mouse 24 h follow.
- EXPERIMENT SUMMARY: Stability of compounds in mouse blood plasma
- Type: in vitro ADME
Square brackets hold non-standard residues; d marks the D form. Peptide text beside a SMILES is read from it. * marks the point of attachment. Gly(1-amidinopiperidin-4-yl) = N=C(N)N1CCC([C@H](N)C(=O)O)CC1; Tic = O=C(O)[C@@H]1Cc2ccccc2CN1; Cha = N[C@@H](CC1CCCCC1)C(=O)O; Nle = CCCC[C@H](N)C(=O)O; X2 = OCCOCCN(Cc1ccccc1)*; X6 = OCCN(CCc1ccccc1)*; NHBn = c1ccc(CN*)cc1
Write the answer as a number in Arbitrary units, unit excluded.

# annotated cases, reported Stability (Arbitrary units) Mouse 24 h shown
# COMPOUND, RECORDED MEASUREMENT
measured = [
    ("CSCC[C@H](NC(=O)[C@@H]1Cc2ccccc2CN1C(=O)[C@H](CCCNC(=N)N)NC(=O)[C@H](CC1CCCCC1)NC(C)=O)C(=O)N(CCO)CCc1ccccc1 [Compound P85, Ac-Cha-Arg-Tic-Met-N(CH2CH2OH)CH2CH2Ph] (Ac-[Cha]R[Tic]M-X6)", 57),
    ("CCCC[C@H](NC(=O)[C@@H]1Cc2ccccc2CN1C(=O)[C@@H](NC(=O)[C@H](CC1CCCCC1)NC(C)=O)C1CCN(C(=N)N)CC1)C(=O)N(CCOCCO)Cc1ccccc1 [Compound P101, Ac-Cha-Gpg-Tic-Nle-N(Bn)CH2CH2OCH2CH2OH] (Ac-[Cha][Gly(1-amidinopiperidin-4-yl)][Tic][Nle]-X2)", 94),
    ("CCCC[C@H](NC(=O)[C@@H]1Cc2ccccc2CN1C(=O)[C@@H](NC(=O)[C@H](CC1CCCCC1)NC(C)=O)C1CCN(C(=N)N)CC1)C(=O)NCc1ccccc1 [Compound P68, Ac-Cha-Gpg-Tic-Nle-N(H)Bn] (Ac-[Cha][Gly(1-amidinopiperidin-4-yl)][Tic][Nle]-NHBn)", 13),
]

Incoming: Indicate the recorded Stability (Arbitrary units) Mouse 24 h value for this compound: CSCC[C@H](NC(=O)[C@@H]1Cc2ccccc2CN1C(=O)[C@H](CCCNC(=N)N)NC(=O)[C@H](CC1CCCCC1)NC(C)=O)C(=O)N(CCOCCO)Cc1ccccc1 [Compound P99, Ac-Cha-Arg-Tic-Met-N(Bn)CH2CH2OCH2CH2OH] (Ac-[Cha]R[Tic]M-X2)
Outgoing: 13
